Values were extracted from patent US20070231333A1.

Recorded kd for the following molecules
- system_tested: T1, human 5T4 antigen (Homo sapiens, UniProt Q13641)
- T1 sequence (Q13641 32-420): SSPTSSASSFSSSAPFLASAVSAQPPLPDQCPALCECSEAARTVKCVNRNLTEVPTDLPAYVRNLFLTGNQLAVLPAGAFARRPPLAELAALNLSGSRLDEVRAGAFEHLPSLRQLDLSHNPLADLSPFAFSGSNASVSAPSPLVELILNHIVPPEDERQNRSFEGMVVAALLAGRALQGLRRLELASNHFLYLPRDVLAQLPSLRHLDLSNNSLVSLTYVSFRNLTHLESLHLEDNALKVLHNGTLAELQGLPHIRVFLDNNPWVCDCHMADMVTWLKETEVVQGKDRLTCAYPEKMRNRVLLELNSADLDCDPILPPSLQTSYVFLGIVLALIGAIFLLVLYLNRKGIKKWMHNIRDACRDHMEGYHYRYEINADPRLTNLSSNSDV
- experiment: BIACORE analysis of antibody binding to human 5T4 antigen immobilized on a CM5 chip
- assay_setup: chimeric and humanized antibodies, Table 12
Form entry: value (s⁻¹) — number only.

Example entries begin here.
| molecule | kd / s⁻¹ |
| --- | --- |
| Chimeric A1 + C67F: chimeric A1 antibody bearing C67F mutation in the heavy chain variable region (antibody, V domains shown) VH: QIQLVQSGPELKKPGETVKISCKASGYTFTNFGMNWVKQGPGEGLKWMGWINTNTGEPRYAEEFKGRFAFSLETTASTAYLQINNLKNEDTATYFCARDWDGAYFFDYWGQGTTLTVSS VL: SIVMTQTPKFLLVSAGDRVTITCKASQSVSNDVAWYQQKPGQSPKLLINFATNRYTGVPNRFTGSGYGTDFTFTISTVQAEDLALYFCQQDYSSPWTFGGGTKLEIK | 6.3e-05 |
| chimeric A2: chimeric A2 antibody: murine A2 variable regions, human IgG4 heavy chain and human kappa light chain constant regions (antibody, V domains shown) VH: QVQLQQSRPELVKPGASVKMSCKASGYTFTDYVISWVKQRTGQGLEWIGEIYPGSNSIYYNEKFKGRATLTADKSSSTAYMQLSSLTSEDSAVYFCAMGGNYGFDYWGQGTTLTVSS VL: QIVLTQSPAIMSASLGERVTLTCTASSSVNSNYLHWYQQKPGSSPKLWIYSTSNLASGVPARFSGSGSGTSYSLTISSMEAEDAATYYCHQYHRSPLTFGAGTKLELK | 0.00025 |
| Chimeric A3 + C91Y: chimeric A3 antibody bearing C91Y mutation in the heavy chain variable region (antibody, V domains shown) VH: EVQLVESGGGLVQPKGSLKLSCAASGFTFNTYAMNWVRQAPGKGLEWVARIRSKSNNYATYYADSVKDRFTISRDDSQSMLYLQMNNLKTEDTAMYYCVRQWDYDVRAMNYWGQGTSVTVSS VL: DIVMTQSHIFMSTSVGDRVSITCKASQDVDTAVAWYQQKPGQSPKLLIYWASTRLTGVPDRFTGSGSGTDFTLTISNVQSEDLADYFCQQYSSYPYTFGGGTKLEIK | 1.6e-05 |

Note kd for the molecule shown: chimeric A1: chimeric A1 antibody: murine A1 variable regions, human IgG4 heavy chain and human kappa light chain constant regions (antibody, V domains shown) VH: QIQLVQSGPELKKPGETVKISCKASGYTFTNFGMNWVKQGPGEGLKWMGWINTNTGEPRYAEEFKGRCAFSLETTASTAYLQINNLKNEDTATYFCARDWDGAYFFDYWGQGTTLTVSS VL: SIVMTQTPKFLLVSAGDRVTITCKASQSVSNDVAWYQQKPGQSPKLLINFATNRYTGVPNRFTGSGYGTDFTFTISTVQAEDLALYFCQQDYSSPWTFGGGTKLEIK 6.7e-05
